biological target: GSK3B (human) (UniProt P49841); assay: radiometric filter-binding kinase assay; conditions: compound 10.0 µM
Sequence (P49841 whole entry, looked up): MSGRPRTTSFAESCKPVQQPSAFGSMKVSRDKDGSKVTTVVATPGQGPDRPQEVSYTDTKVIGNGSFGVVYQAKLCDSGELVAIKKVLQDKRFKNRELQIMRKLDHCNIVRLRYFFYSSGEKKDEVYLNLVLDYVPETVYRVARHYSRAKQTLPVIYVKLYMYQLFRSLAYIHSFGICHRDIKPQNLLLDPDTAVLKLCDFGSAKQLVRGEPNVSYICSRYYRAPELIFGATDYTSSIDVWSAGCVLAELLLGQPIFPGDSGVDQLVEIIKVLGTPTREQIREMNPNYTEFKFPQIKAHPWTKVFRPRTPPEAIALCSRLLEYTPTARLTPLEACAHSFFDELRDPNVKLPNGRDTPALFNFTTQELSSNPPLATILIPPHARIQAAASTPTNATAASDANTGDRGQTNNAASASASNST
// thresholds for residual activity classes: low: < 60%; mid: ≥ 60% and < 90%; high: ≥ 90%

Field: example entries. Status: answers known.
N#Cc1c(C2CCNCC2)cc(-c2c(O)cccc2OCC2CC2)nc1N: mid
CCn1c(-c2nonc2N)nc2cncc(CNC3CCNCC3)c21: low
O=C(N[C@@H](COc1ccc2[nH]c(=O)[nH]c2c1)c1ccccc1)c1cccn(Cc2ccc(F)c(F)c2)c1=O: mid

Prompt: Input "CN1C(=O)[C@@H](Cc2c[nH]c3ccccc23)NC1=S" ; output its category
Response: high

Prompt: Input "c1ccc2c(-c3cnn4cc(-c5ccc(N6CCNCC6)cc5)cnc34)ccnc2c1" ; output its category
Response: mid

Prompt: Input CC1=C(CO)C(=O)O[C@@H]([C@@H](C)[C@H]2CC[C@H]3[C@@H]4C[C@H]5O[C@]56[C@@H](O)C=CC(=O)[C@]6(C)C4CC[C@]23C)C1 (some centres undefined) ; output its category
Response: high

Prompt: Input "COc1cc(C(=O)N2CCOCC2)c(F)cc1Nc1ncc(C(F)(F)F)c(NC2CC2)n1" ; output its category
Response: low

====

tested on: RPS6KB1 (human), P23443 [T412E]; assay: radiometric filter-binding kinase assay; conditions: compound 10.0 µM
Sequence (P23443 whole entry T412E, looked up): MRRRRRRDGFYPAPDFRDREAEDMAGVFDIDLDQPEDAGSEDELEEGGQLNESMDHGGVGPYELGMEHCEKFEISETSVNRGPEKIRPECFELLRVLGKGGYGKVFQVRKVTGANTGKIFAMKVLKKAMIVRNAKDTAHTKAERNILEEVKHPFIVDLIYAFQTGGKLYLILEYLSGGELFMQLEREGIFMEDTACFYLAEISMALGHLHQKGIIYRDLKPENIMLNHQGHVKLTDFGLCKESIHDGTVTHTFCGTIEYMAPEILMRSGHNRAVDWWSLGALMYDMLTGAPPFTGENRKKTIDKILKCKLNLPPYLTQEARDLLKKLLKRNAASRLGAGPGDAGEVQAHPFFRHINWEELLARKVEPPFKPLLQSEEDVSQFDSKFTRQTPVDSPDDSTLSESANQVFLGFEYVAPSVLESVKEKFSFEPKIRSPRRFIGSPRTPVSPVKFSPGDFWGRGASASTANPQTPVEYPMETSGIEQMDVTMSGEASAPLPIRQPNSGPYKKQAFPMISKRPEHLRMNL
Below, each of the compounds is paired with its reported residual activity value.
Please give a number only; it is taken to be in %.

Here's what some known entries look like.
CC(C)C[C@H](NC(=O)CNC(=O)c1cc(Cl)ccc1Cl)B1OC(=O)CC(CC(=O)O)(C(=O)O)O1 (some centres not stated): 94
NC(=O)c1ccc(-c2ccc(Oc3cncc4sc(-c5nn[nH]n5)cc34)cc2)cc1: 64
O=C(O)c1ccc(-c2c[nH]c3ncc(-c4ccccc4)cc23)cc1C1CCCC1: 24
CC1=C(CO)C(=O)O[C@@H]([C@@H](C)[C@H]2CC[C@H]3[C@@H]4C[C@H]5O[C@]56[C@@H](O)C=CC(=O)[C@]6(C)C4CC[C@]23C)C1 (some centres not stated): 69
CCCCCc1ccc(/C=C/[C@H](O)[C@@H](CO)NC)cc1: 100

Now look at this entry.
Prompt: residual activity for "CCCC(CCC)C(=O)O" ?
Response: 84

====

target: MAPK15 (human) (UniProt Q8TD08); assay: radiometric filter-binding kinase assay; conditions: compound 1.0 µM
Sequence (Q8TD08 whole entry, looked up): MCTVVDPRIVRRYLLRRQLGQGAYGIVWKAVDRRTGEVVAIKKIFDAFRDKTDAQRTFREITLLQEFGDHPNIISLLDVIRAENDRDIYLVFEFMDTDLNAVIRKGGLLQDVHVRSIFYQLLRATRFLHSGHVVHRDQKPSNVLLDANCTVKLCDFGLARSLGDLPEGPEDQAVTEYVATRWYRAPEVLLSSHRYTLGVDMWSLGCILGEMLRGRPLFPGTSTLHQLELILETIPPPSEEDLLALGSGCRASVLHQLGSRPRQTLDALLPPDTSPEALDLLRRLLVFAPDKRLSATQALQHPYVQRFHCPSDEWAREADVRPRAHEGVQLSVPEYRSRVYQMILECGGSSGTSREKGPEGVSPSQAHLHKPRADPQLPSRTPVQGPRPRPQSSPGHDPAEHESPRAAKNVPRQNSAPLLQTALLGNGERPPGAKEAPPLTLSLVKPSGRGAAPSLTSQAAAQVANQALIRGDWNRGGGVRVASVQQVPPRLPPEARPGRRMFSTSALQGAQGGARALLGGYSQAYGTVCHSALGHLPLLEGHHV
Below, each of the compounds is paired with its reported residual activity value.
Please give a number only; it is taken to be in %.

CCc1cncnc1N1CCN(Cc2nc3cc(C(F)(F)F)ccc3[nH]2)CC1: 83
COc1ccc2c(c1)c1c3c(c4c5ccccc5n(C)c4c1n2CC(O)CN(C)C)C(=O)NC3=O (stereo not given): 53
O=C1NC(=S)N[C@@H]1Cc1c[nH]c2ccccc12: 104

Prompt: residual activity for CC1=C(CO)C(=O)O[C@@H]([C@@H](C)[C@H]2CC[C@H]3[C@@H]4C[C@H]5O[C@]56[C@@H](O)C=CC(=O)[C@]6(C)C4CC[C@]23C)C1 (stereo not given in full) ?
Response: 115

Prompt: residual activity for "NC(=O)c1c(NC(=O)C2CC2)sc2c1CCCC2" ?
Response: 106

====

Below, each of the molecules is paired with its reported residual activity value.
target: MAP3K5 (human); experiment: radiometric filter-binding kinase assay; conditions: compound 0.1 µM

Prompt: residual activity for CC1=C(CO)C(=O)O[C@@H]([C@@H](C)[C@H]2CC[C@H]3[C@@H]4C[C@H]5O[C@]56[C@@H](O)C=CC(=O)[C@]6(C)C4CC[C@]23C)C1 (stereo partly drawn) ?
Response: 104%

Prompt: residual activity for "Cc1cc(NC(=O)c2cccc(NC(=O)/C=C/CN(C)C)c2)ccc1Nc1nccc(-c2cccnc2)n1" ?
Response: 100%

Prompt: residual activity for "COc1ccc(-n2ncc3cnc(Nc4cc(OC)c(OC)c(OCCCN5CCN(C)CC5)c4)nc32)cc1" ?
Response: 99%

Prompt: residual activity for "O=C(O)c1ccc(-c2c[nH]c3ncc(-c4ccccc4)cc23)cc1C1CCCC1" ?
Response: 100%

Prompt: residual activity for "Cc1ccc(-c2ccc3c(ccc4sc5c(c43)NC[C@@H](C)NC5=O)n2)cn1" ?
Response: 106%

The measurements presented in this section are drawn from the kinase profiling compilation of Christmann-Franck et al. (2016).
